Recorded values, source patent US8338465B2.

# Target or system: dihydrolipoamide acyltransferase (DlaT) (Mycobacterium tuberculosis, UniProt P9WIS7)
# Protocol text: DlaT inhibition (Dlat IC50); DTNB peroxidase assay with Lpd, DlaT and AhpD
# Format: biochemical
# Condition label: Dlat IC50 category, Table 1, Compounds A1 to A294

Compound: O=C(O)c1cccc(N2C(=O)C(=Cc3ccc(-c4ccccc4Cl)o3)SC2=S)c1 (single isomer, unassigned)
IC50: 11 to 40 µM

* * *

# Target or system: dihydrolipoamide acyltransferase (DlaT) (Mycobacterium tuberculosis)
# Protocol text: DlaT inhibition (Dlat IC50); DTNB peroxidase assay with Lpd, DlaT and AhpD
# Assay type: biochemical
# Condition label: Dlat IC50 category, Table 21, Prodrugs (Examples U1 to U10)
pIC50: −log10 of the molar value. Where a name gives a salt, the structure may show the parent alone.

Molecule: CSc1ccc(-c2ccc(C=C3SC(=S)N(C4CCCC(C(=O)NC(CO)CO)C4)C3=O)o2)cc1 (stereo not drawn)
pIC50: 4.10 to 4.39
//
Molecule: CSc1ccc(-c2ccc(C=C3SC(=S)N(C4CCCC(C(=O)OCC(CO)CO)C4)C3=O)o2)cc1 (stereo not drawn)
pIC50: 4.40 to 4.96
//
Molecule: CSc1ccc(-c2ccc(C=C3SC(=S)N(C4CCCC(C(=O)OCC(C)(CO)CO)C4)C3=O)o2)cc1 (stereo not drawn)
pIC50: 4.10 to 4.39
//
Molecule: CSc1ccc(-c2ccc(C=C3SC(=S)N(C4CCCC(C(=O)OCCCCO)C4)C3=O)o2)cc1 (stereo not drawn)
pIC50: 4.10 to 4.39
//
Molecule: CS(=O)(=O)c1ccc(-c2ccc(C=C3SC(=S)N(C4CCCC(C(=O)OCCCO)C4)C3=O)o2)cc1 (stereo not drawn)
pIC50: 4.10 to 4.39
//
Molecule: CNS(=O)(=O)c1ccc(-c2ccc(C=C3SC(=S)N(C4CCCC(C(=O)OCCCO)C4)C3=O)o2)cc1 (stereo not drawn)
pIC50: 4.40 to 4.96
//
Molecule: CSc1ccc(-c2ccc(C=C3SC(=S)N(C4CCCC(C(=O)NC(CO)(CO)CO)C4)C3=O)o2)cc1 (stereo not drawn)
pIC50: 4.10 to 4.39
//
Molecule: CSc1ccc(-c2ccc(C=C3SC(=S)N(C4CCCC(C(=O)OCCN(CCO)CCO)C4)C3=O)o2)cc1 (stereo not drawn) [Compound U10, hydrochloride]
pIC50: > 5.00
//
Molecule: CSc1ccc(-c2ccc(C=C3SC(=S)N(C4CCCC(C(=O)OCCO)C4)C3=O)o2)cc1 (stereo not drawn)
pIC50: 4.10 to 4.39

* * *

# Target or system: dihydrolipoamide acyltransferase (DlaT) (Mycobacterium tuberculosis, UniProt P9WIS7)
# Protocol text: DlaT inhibition (Dlat IC50); DTNB peroxidase assay with Lpd, DlaT and AhpD
# Format: biochemical
# Condition label: Dlat IC50 category
Measurement name: IC50

Molecule: CC(C)C(C(=O)O)N1C(=O)C(=Cc2ccc(-c3cccc(C(F)(F)F)c3)o2)SC1=S (centres unmarked)
Measurement name: IC50
Result value: 11 to 40 µM
//
Molecule: O=C(O)CCN1C(=O)C(=Cc2cccc(-c3ccccc3Cl)n2)SC1=S
Measurement name: IC50
Result value: 41 to 80 µM
//
Molecule: O=C(O)CN1C(=O)C(=Cc2ccc(-c3ccccc3Cl)o2)SC1=S
Measurement name: IC50
Result value: 11 to 40 µM
//
Molecule: O=C(O)CCN1C(=O)C(=Cc2ccc(-c3ccccc3C(F)(F)F)o2)SC1=S
Measurement name: IC50
Result value: 11 to 40 µM
//
Molecule: CCCc1ccc(-c2ccc(C=C3SC(=S)N(Nc4ccccc4C(=O)O)C3=O)o2)cc1
Measurement name: IC50
Result value: < 10 µM
//
Molecule: O=C(O)C(c1ccccc1)N1C(=O)C(=Cc2ccc(-c3ccc(Cl)cc3)o2)SC1=S (centres unmarked)
Measurement name: IC50
Result value: < 10 µM
//
Molecule: O=C(O)CCCCCN1C(=O)C(=Cc2ccc(-c3ccc(O)cc3)o2)SC1=S
Measurement name: IC50
Result value: < 10 µM
//
Molecule: O=C1C(=Cc2ccc(-c3ccccc3Cl)o2)SC(=S)N1C1CCC(O)CC1 (centres unmarked)
Measurement name: IC50
Result value: 11 to 40 µM
//
Molecule: O=C(O)CCCCCN1C(=O)C(=Cc2ccc(-c3ccc(Cl)c(Cl)c3)o2)SC1=S
Measurement name: IC50
Result value: < 10 µM
//
Molecule: Cc1ccccc1-c1ccc(C=C2SC(=S)N(CC(=O)O)C2=O)o1
Measurement name: IC50
Result value: 41 to 80 µM
//
Molecule: O=C(O)CCCN1C(=O)C(=Cc2ccc(-c3ccccc3Cl)o2)SC1=S
Measurement name: IC50
Result value: < 10 µM
//
Molecule: O=C(O)C1CCCC(N2C(=O)C(=Cc3ccc(-c4ccc(Cl)cc4)o3)SC2=S)C1 (centres unmarked)
Measurement name: IC50
Result value: < 10 µM
//
Molecule: CC(C(=O)O)N1C(=O)C(=Cc2ccc(-c3ccc(Cl)cc3[N+](=O)[O-])o2)SC1=S (centres unmarked)
Measurement name: IC50
Result value: 11 to 40 µM
//
Molecule: O=C(O)C(Cc1ccccc1)N1C(=O)C(=Cc2ccc(-c3ccc(Cc4ccccc4)cc3)o2)SC1=S (centres unmarked)
Measurement name: IC50
Result value: < 10 µM
//
Molecule: Cc1ccccc1-c1ccc(C=C2SC(=S)N(C3CCCC(C(=O)O)C3)C2=O)o1 (centres unmarked)
Measurement name: IC50
Result value: < 10 µM
//
Molecule: O=C(O)CCCCCN1C(=O)C(=Cc2cccc(-c3ccccc3Cl)n2)SC1=S
Measurement name: IC50
Result value: 11 to 40 µM
//
Molecule: COc1ccc(-c2ccc(C=C3SC(=S)N(Nc4ccccc4C(=O)O)C3=O)o2)cc1
Measurement name: IC50
Result value: < 10 µM

* * *

# Target or system: dihydrolipoamide acyltransferase (DlaT) (Mycobacterium tuberculosis)
# Sequence (P9WIS7 1-553): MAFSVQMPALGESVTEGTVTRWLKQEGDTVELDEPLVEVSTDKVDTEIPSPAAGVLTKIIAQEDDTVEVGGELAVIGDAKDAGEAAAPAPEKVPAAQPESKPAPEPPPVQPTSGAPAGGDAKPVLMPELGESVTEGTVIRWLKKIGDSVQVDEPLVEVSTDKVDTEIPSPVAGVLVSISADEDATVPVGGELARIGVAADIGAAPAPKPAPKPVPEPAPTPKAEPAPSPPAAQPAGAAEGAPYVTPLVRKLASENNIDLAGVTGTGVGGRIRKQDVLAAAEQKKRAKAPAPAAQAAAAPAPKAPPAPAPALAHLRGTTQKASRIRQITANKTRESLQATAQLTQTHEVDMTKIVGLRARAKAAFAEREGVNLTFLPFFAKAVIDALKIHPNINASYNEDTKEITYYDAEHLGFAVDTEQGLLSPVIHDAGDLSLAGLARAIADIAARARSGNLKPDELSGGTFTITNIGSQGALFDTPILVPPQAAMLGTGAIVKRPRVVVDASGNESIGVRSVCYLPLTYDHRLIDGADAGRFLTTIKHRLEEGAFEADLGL
# Protocol text: DlaT inhibition (Dlat IC50); DTNB peroxidase assay with Lpd, DlaT and AhpD
# Format: biochemical
# Condition label: Table 1, Compounds A1 to A294; read-out: Dlat IC50 category
IC50 values by entry
Measurement name: IC50

Compound: Cc1ccccc1-c1ccc(C=C2SC(=S)N(c3cc(C(=O)O)ccc3F)C2=O)o1 [Compound A144]
Measurement name: IC50
Result value: < 10 µM
//
Compound: CC(C)c1cccc(-c2ccc(C=C3SC(=S)N(c4cccc(O)c4)C3=O)o2)c1 [Compound A55]
Measurement name: IC50
Result value: 11 to 40 µM
//
Compound: CC(C)Cc1ccc(-c2ccc(C=C3SC(=S)N(c4ccc(O)c(C(=O)O)c4)C3=O)o2)cc1 [Compound A65]
Measurement name: IC50
Result value: < 10 µM
//
Compound: O=C(O)c1ccc(F)c(N2C(=O)C(=Cc3ccc(-c4ccccc4F)o3)SC2=S)c1 [Compound A208]
Measurement name: IC50
Result value: 11 to 40 µM
//
Compound: O=C(O)c1cccc(N2C(=O)C(=Cc3ccc(-c4ccc(Cl)cc4Cl)o3)SC2=S)c1 [Compound A35]
Measurement name: IC50
Result value: 11 to 40 µM
//
Compound: O=C(O)c1ccc(Cl)c(N2C(=O)C(=Cc3ccc(-c4ccc(N5CCOCC5)cc4)o3)SC2=S)c1 [Compound A137]
Measurement name: IC50
Result value: < 10 µM
//
Compound: CNS(=O)(=O)c1ccc(-c2ccc(C=C3SC(=S)N(c4ccc(F)c(C(=O)O)c4)C3=O)o2)cc1 [Compound A287]
Measurement name: IC50
Result value: 11 to 40 µM
//
Compound: CCOc1ccc(-c2ccc(C=C3SC(=S)N(c4cc(C(=O)O)ccc4F)C3=O)o2)cc1 [Compound A218]
Measurement name: IC50
Result value: < 10 µM
//
Compound: CC(C)Oc1ccc(-c2ccc(C=C3SC(=S)N(c4cc(C(=O)O)ccc4F)C3=O)o2)cc1 [Compound A241]
Measurement name: IC50
Result value: < 10 µM
//
Compound: O=C(O)c1cc(N2C(=O)C(=Cc3ccc(-c4ccccc4Cl)o3)SC2=S)cc([N+](=O)[O-])c1 [Compound A88]
Measurement name: IC50
Result value: < 10 µM
//
Compound: Cc1ccccc1-c1ccc(C=C2SC(=S)N(c3cc(C(=O)O)ccc3F)C2=O)s1 [Compound A188]
Measurement name: IC50
Result value: < 10 µM
//
Compound: CSc1ccc(-c2ccc(C=C3SC(=S)N(c4cc(C(=O)O)ccc4F)C3=O)o2)cc1 [Compound A239]
Measurement name: IC50
Result value: < 10 µM
//
Compound: COc1ccc(C(=O)O)cc1N1C(=O)C(=Cc2ccc(-c3ccccc3Cl)o2)SC1=S [Compound A74]
Measurement name: IC50
Result value: < 10 µM
//
Compound: CCCCc1ccc(-c2ccc(C=C3SC(=S)N(c4cc(C(=O)O)cc(C(F)(F)F)c4)C3=O)o2)cc1 [Compound A266]
Measurement name: IC50
Result value: < 10 µM
//
Compound: CC(C)(C)c1ccc(-c2ccc(C=C3SC(=S)N(c4cccc(C(=O)O)c4)C3=O)o2)c(O)c1 [Compound A133]
Measurement name: IC50
Result value: < 10 µM
//
Compound: O=C(O)c1cc(N2C(=O)C(=Cc3ccc(-c4ccccc4-c4ccccc4)o3)SC2=S)ccc1F [Compound A284]
Measurement name: IC50
Result value: < 10 µM
//
Compound: CC(=O)Nc1ccc(-c2ccc(C=C3SC(=S)N(c4cccc(C(=O)O)c4)C3=O)o2)cc1 [Compound A204]
Measurement name: IC50
Result value: < 10 µM
//
Compound: CN(C)c1ccc(N2C(=O)C(=Cc3ccc(-c4ccccc4Cl)o3)SC2=S)cc1C(=O)O [Compound A274]
Measurement name: IC50
Result value: 11 to 40 µM
//
Compound: O=C(O)c1cccc(N2C(=O)C(=Cc3ccc(-c4ccc(C(=O)c5ccccc5)cc4)o3)SC2=S)c1 [Compound A48]
Measurement name: IC50
Result value: < 10 µM
//
Compound: O=C(O)c1ccc(N2C(=O)C(=Cc3ccc(-c4ccc(Cc5ccccc5)cc4)o3)SC2=S)cc1 [Compound A11]
Measurement name: IC50
Result value: 11 to 40 µM
//
Compound: O=C(O)c1ccc(N2C(=O)C(=Cc3cc(-c4cccc(C(F)(F)F)c4)co3)SC2=S)cc1 [Compound A29]
Measurement name: IC50
Result value: 11 to 40 µM
//
Compound: Cc1cccc(C)c1-c1ccc(C=C2SC(=S)N(c3cc(C(=O)O)ccc3F)C2=O)o1 [Compound A172]
Measurement name: IC50
Result value: < 10 µM
//
Compound: O=C(O)c1cccc(N2C(=O)C(=Cc3ccc(-c4ccc(C(=O)O)c(O)c4)o3)SC2=S)c1 [Compound A115]
Measurement name: IC50
Result value: 11 to 40 µM
//
Compound: Cc1ccccc1-c1ccc(C=C2SC(=S)N(c3cccc(C(=O)O)c3)C2=O)s1 [Compound A187]
Measurement name: IC50
Result value: 11 to 40 µM
//
Compound: O=C(O)c1cccc(N2C(=O)C(=Cc3ccc(-c4ccccc4OCc4ccccc4)o3)SC2=S)c1 [Compound A179]
Measurement name: IC50
Result value: < 10 µM
//
Compound: O=C(O)c1cc(C(=O)O)cc(N2C(=O)C(=Cc3ccc(-c4ccccc4Cl)o3)SC2=S)c1 [Compound A230]
Measurement name: IC50
Result value: < 10 µM
//
Compound: CC(C)c1ccc(-c2ccc(C=C3SC(=S)N(c4ccc(O)c(C(=O)O)c4)C3=O)o2)cc1 [Compound A47]
Measurement name: IC50
Result value: < 10 µM
//
Compound: O=C(O)c1ccc(-c2ccc(C=C3SC(=S)N(c4ccc(O)cc4)C3=O)o2)cc1 [Compound A291]
Measurement name: IC50
Result value: < 10 µM
//
Compound: O=C(O)c1ccc(F)c(N2C(=O)C(=Cc3ccc(-c4cccc(C(F)(F)F)c4)o3)SC2=S)c1 [Compound A103]
Measurement name: IC50
Result value: < 10 µM
//
Compound: Cc1ccccc1-c1cccc(C=C2SC(=S)N(c3cc(C(=O)O)ccc3F)C2=O)n1 [Compound A161]
Measurement name: IC50
Result value: < 10 µM
